Tested on: C33A
Experiment: Primary qHTS to identify gynecologic anti-cancer compounds using libraries of approved drugs and bioactive compounds (AID 1345084); further: on the % scale 0 is the no-effect control and ±100 the full control effect; nearly all actives have a fitted effect of over 55% in size
Details: Gynecologic cancer cell panel viability, ATPlite luminescence, 48 h; series mostly up to 57.5 µM
Results filed as inconclusive are left out. Active and inactive are the calls of the source. The call rests on the fitted dose curve; in most records, active means well fitted cell-killing curve with a large enough effect; inconclusive means small, poorly fitted or top-dose-only effect, or effect the other way; inactive means flat fitted curve, though single readings scatter.
readout_label: activity change, negative = cytotoxicity

CC(C)[C@H]1CCC(CO)=C[C@@H]1/C=C(\CO)C(=O)O :: inactive
CC(=O)OC1C(O)C(C)=C(CCC(C)CC(=O)O)C2(C)CCCC(C)(C)C12 (stereo not given) :: inactive
C[C@]1(OC(=O)/C=C/c2ccccc2)C[C@H](O)[C@]2(O)C=CO[C@@H](O[C@@H]3O[C@H](CO)[C@@H](O)[C@H](O)[C@H]3O)C12 (stereo not given in full) :: inactive
C=CC(C)(O)CC/C=C(\C)C(=O)OC1CC2(C(=O)O)CCC3(C)C(=CCC4C5(C)CCC(OC6OC(COC7OCC(O)C(O)C7O)C(O)C(OC7OCC(O)C(O)C7O)C6OC6OC(CO)C(O)C(O)C6OC6OCC(O)C(O)C6O)C(C)(C)C5CCC43C)C2CC1(C)C (stereo not given) :: 0.0336% [at 6.55 µM] (inactive)
CCOC(=O)c1ccnc(CNCC(=O)N(CC)CCN(C)C)c1 :: inactive
COC(=O)C1=COC(O[C@@H]2O[C@H](CO)[C@@H](O)[C@H](O)[C@H]2O)/C(=C\COC(=O)c2ccc(OC3OC(CO)C(O)C(O)C3O)c(OC)c2)C1CC(=O)OCCc1ccc(O)cc1 (stereo not given in full) :: 7.7% [at 11.6 µM] (inactive)
O=C(/C=C/c1ccc(O)cc1)OC[C@]12O[C@H]1[C@@H](O)[C@@H]1C=CO[C@@H](O[C@@H]3O[C@H](CO)[C@@H](O)[C@H](O)[C@H]3O)[C@@H]12 :: inactive
CC(=O)c1c(C)cc(O)cc1O[C@@H]1O[C@H](CO)[C@@H](O)[C@H](O)[C@H]1O :: inactive
COc1cc(O[C@@H]2O[C@H](CO)[C@@H](O)[C@H](O)[C@H]2O)c(CCC(=O)OC[C@H]2O[C@@H](Oc3cc(OC)c(C4OC(=O)C(C)(O)C4O)cc3CCC(=O)O)[C@H](O)[C@@H](O)[C@@H]2O)cc1C1OC(=O)C(C)(O)C1O (stereo not given in full) :: -6.26% [at 11.6 µM] (inactive)
CC(=O)NCCCCn1c2c(c3ccccc31)C(=O)NCC2 :: inactive

====

Here, each record is paired with measured max response data.
Tested on: CRL-7250
Assay: Cytotoxic Profiling of Annotated Libraries Using Quantitative High-Throughput Screening (AID 1296008); further: on the % scale 0 is the no-effect control and ±100 the full control effect; nearly all actives have a fitted effect of over 60% in size
Conditions: Five cell lines viability, CellTiter-Glo ATP luminescence, 48-72 h; hits give low values
Records with an inconclusive call do not appear.
readout_label: max response (%)

CC1=CC(=O)C2C(C)(C)CCCC2(C)C12CCC1(COC(=O)C1)O2 (stereo not given) :: -1.45
CN1C(=O)N[C@@H](Cc2c[nH]c3c(Cl)cccc23)C1=O :: -3.21
CCc1c(CC(N)=O)c2cc(OCCCP(=O)(O)O)ccc2n1Cc1ccccc1 :: -8.49
CC(=O)c1c(C)cc(O)cc1O[C@@H]1O[C@H](CO)[C@@H](O)[C@H](O)[C@H]1O :: -5.78
O=C(/C=C/c1ccc(O)c(O)c1)OCc1ccccc1O[C@@H]1O[C@H](CO)[C@@H](O)[C@H](O)[C@H]1O :: -1.33
C/C=C/C=C/C=C/C(=O)O[C@@H]1[C@@H](OC)C2=C(C(=O)N(C(C)C(=O)O)C2)[C@@]2(C)CCCC(C)(C)[C@H]12 (stereo not given in full) :: -1.32
CC(C)(O)C1CC=C(C(=O)OCC2OC(Oc3c(O)cc(C(=O)O)cc3O)C(O)C(O)C2O)CC1 (stereo not given) :: -4.71
COC(=O)CC[C@@H](C)[C@H]1CC[C@H]2[C@@H]3CC(=O)[C@H]4C[C@H](OC(C)=O)CC[C@]4(C)[C@H]3CC[C@]12C :: -2.01
C[C@@H]1O[C@@H](O[C@H]2[C@H](O)[C@@H](O)[C@H](OC[C@H]3O[C@@H](OC(=O)[C@]45CCC(C)(C)C[C@H]4C4=CCC6[C@@]7(C)C[C@H](O)[C@H](O[C@@H]8O[C@H](CO)[C@@H](O)[C@H](O)[C@H]8O)[C@@](C)(C(=O)O)C7CC[C@@]6(C)[C@]4(C)CC5)[C@H](O[C@@H]4O[C@H](CO)[C@@H](O)[C@H](O)[C@H]4O)[C@@H](O)[C@@H]3O)O[C@@H]2CO)[C@H](O)[C@H](O)[C@H]1O (stereo not given in full) :: 2.51
C=CCc1ccc(O[C@@H]2O[C@H](CO)[C@@H](O)[C@H](O)[C@H]2O)c(OC)c1 :: -5.9
CC(=O)O[C@H]1CC[C@@]2(CI)C(=CC[C@@H]3[C@@H]2CC[C@]2(C)[C@@H]([C@H](C)CCCC(C)C)CC[C@@H]32)C1 :: -3.01
C=C[C@@]1(C)CC(=O)C2[C@](C)(O1)[C@@H](OC(C)=O)[C@@H](O)[C@H]1C(C)(C)CCC[C@]21C (stereo not given in full) :: -2.88
CCOC(=O)Nc1nc2ccccc2[nH]1 :: 3.6
CN[C@@H]1[C@@H](O)[C@@H](O[C@@H]2[C@@H](O)[C@H](O[C@H]3O[C@H](CN)[C@@H](O)[C@H](O)[C@H]3O)[C@@H](N)C[C@H]2NC(=O)[C@@H](O)CN)OC[C@]1(C)O :: -2.08
C=C(C)[C@H]1C[C@@H](O)C(=C)CC[C@@H](O)C(=C)[C@@H](O)C1 :: -0.626
CC(CCC1C(C(=O)O)=CC(=O)CC1(C)C)O[C@@H]1O[C@H](CO)[C@@H](O)[C@H](O)[C@H]1O (stereo not given in full) :: 1.37
CC1(C)CCC(C)(C)c2cc([C@@H](O)C(=O)Nc3ccc(C(=O)O)cc3F)ccc21 :: -3.37
CCC[C@@H]1C[C@@H](C(=O)N[C@@H]([C@H]2O[C@H](SC)[C@H](OP(=O)(O)O)[C@@H](O)[C@H]2O)[C@H](C)Cl)N(C)C1 :: -7.94
C[C@@]12C[C@]3(O)O[C@H](O1)[C@]1(COC(=O)c4ccccc4)[C@H]3C[C@@]12O[C@@H]1O[C@H](COC(=O)c2ccccc2)[C@@H](O)[C@H](O)[C@H]1O :: -3.18
CC1(C)CC[C@]2(C(=O)O[C@@H]3O[C@H](CO)[C@@H](O)[C@H](O)[C@H]3O)CC[C@]3(C)C(=CCC4[C@@]5(C)C[C@@H](O)[C@H](O)[C@@](C)(CO)C5CC[C@]43C)C2C1 (stereo not given in full) :: 1.73

====

Tested on: CP269
Test: qHTS profiling for inhibitors of Plasmodium falciparum proliferation (AID 504749); further: nearly all actives have a fitted effect of over 60% in size
Conditions: P. falciparum in erythrocytes, SYBR Green DNA, 72 h; series mostly up to 28.7 µM
Records with an inconclusive call do not appear. The source made the active and inactive calls. The call rests on the fitted dose curve; in most records, active means well fitted inhibition curve with a large enough effect; inconclusive means small, poorly fitted or top-dose-only effect; inactive means flat fitted curve, though single readings scatter. Peptide text beside a SMILES is read from it.
Labels: active, inactive

CCCCCCCCCCCCCCCC(=O)OCC(COC(=O)CCCCCCCCCCCCCCC)OC(=O)CCCCCCCCCCCCCCC :: inactive
CCCCC(CC)COC(=O)CC(C(=O)OCC(CC)CCCC)S(=O)(=O)O (stereo not given) :: inactive
C[C@H]1C[C@H]2[C@@H]3CCC4=CC(=O)C=C[C@]4(C)[C@@]3(F)[C@@H](O)C[C@]2(C)[C@@]1(O)C(=O)CO :: inactive
CCCCC(=O)O[C@]1(C(=O)CO)[C@H](C)C[C@H]2[C@@H]3CCC4=CC(=O)C=C[C@]4(C)[C@@]3(F)[C@@H](O)C[C@@]21C :: inactive
C#CCOc1ccc2c(C)cc(=O)oc2c1 :: inactive
COC(=O)CCC(=O)CN :: inactive
C[C@]12CCC(=O)C=C1CC[C@@H]1[C@@H]2[C@@H](O)C[C@@]2(C)[C@H]1CC[C@]2(O)C(=O)COP(=O)(O)O :: inactive
NC(=O)c1ncn(C2OC(CO)C(O)C2O)n1 (stereo not given) :: inactive
CCOc1ccc(N=Nc2ccc(N)cc2N)cc1 :: inactive
CCCCCCCC/C=C\CCCCCCCC(=O)O :: inactive
CCOc1ccc2c(c1)C(C)=CC(C)(C)N2 :: inactive
O=C(O)c1cc(O)c2c(c1)[O][Bi][O]2 :: inactive
Oc1cc(O)c2c(c1)OC(c1ccc(O)c(O)c1)C(O)C2 (stereo not given) :: inactive
Cc1cn([C@H]2C[C@H](O)[C@@H](CO)O2)c(=O)[nH]c1=O :: inactive
CC(=O)N[C@@H](CC(=O)O)C(=O)N[C@@H](CCC(=O)O)C(=O)O (Ac-Asp-Glu-OH) :: inactive
COC(=O)[C@H]1[C@H]2C[C@@H]3c4[nH]c5ccccc5c4CCN3C[C@H]2C[C@@H](OC(=O)c2cc(OC)c(OC)c(OC)c2)[C@@H]1OC :: active
O=S(=O)(O)c1ccc2c(N=Nc3ccc(S(=O)(=O)O)c4ccccc34)c(O)c(S(=O)(=O)O)cc2c1 :: inactive
Cc1c(C)c2c(c(C)c1O)CC[C@@](C)(CCC[C@H](C)CCC[C@H](C)CCCC(C)C)O2 :: inactive
CCNC(=O)[C@@H]1CCCN1C(=O)[C@H](CCCN=C(N)N)NC(=O)[C@H](CC(C)C)NC(=O)[C@@H](Cc1c[nH]c2ccccc12)NC(=O)[C@H](Cc1ccc(O)cc1)NC(=O)[C@H](CO)NC(=O)[C@H](Cc1c[nH]c2ccccc12)NC(=O)[C@H](Cc1cnc[nH]1)NC(=O)[C@@H]1CCC(=O)N1 :: active
CC(C)(C)C(=O)OCOC(=O)[C@@H]1N2C(=O)[C@@H](N=CN3CCCCCC3)[C@H]2SC1(C)C :: inactive
